# target.of.assay: MERTK (human) (UniProt Q12866)
observable: IC50 (nM)
Give the value, in units of nM, as a plain number.

Exam item: Query for MERTK (human) (UniProt Q12866): what IC50 does the record show for COc1cc(Nc2c(C#N)cnc3cc(OCCCN4CCN(C)CC4)c(OC)cc23)c(Cl)cc1Cl ?
Marked response: 746

----------
# target.of.assay: EIF2AK1 (human) (UniProt Q9BQI3)
# Sequence (Q9BQI3 whole entry, looked up): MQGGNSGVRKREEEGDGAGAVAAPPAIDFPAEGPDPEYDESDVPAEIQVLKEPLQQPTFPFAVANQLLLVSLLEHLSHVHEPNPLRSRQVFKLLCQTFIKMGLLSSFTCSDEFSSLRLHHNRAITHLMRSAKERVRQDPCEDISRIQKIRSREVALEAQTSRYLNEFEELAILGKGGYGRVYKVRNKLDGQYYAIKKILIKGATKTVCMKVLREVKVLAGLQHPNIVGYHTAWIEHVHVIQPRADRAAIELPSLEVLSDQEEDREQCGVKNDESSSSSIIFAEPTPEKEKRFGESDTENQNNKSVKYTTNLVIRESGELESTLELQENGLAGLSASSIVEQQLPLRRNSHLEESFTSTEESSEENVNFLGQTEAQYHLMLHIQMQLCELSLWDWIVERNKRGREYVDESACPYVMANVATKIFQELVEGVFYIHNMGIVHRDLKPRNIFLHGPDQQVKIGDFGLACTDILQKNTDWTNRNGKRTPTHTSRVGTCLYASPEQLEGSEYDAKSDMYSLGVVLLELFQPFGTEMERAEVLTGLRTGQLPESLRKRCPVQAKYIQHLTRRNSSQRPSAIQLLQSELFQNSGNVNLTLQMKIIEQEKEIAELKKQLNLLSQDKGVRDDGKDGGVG
observable: pIC50
pIC50 here is simply -log10 of the concentration when that concentration is written in mol/L.

Exam item: Query for EIF2AK1 (human) (UniProt Q9BQI3): what pIC50 does the record show for COc1cc(Nc2c(C#N)cnc3cc(OCCCN4CCN(C)CC4)c(OC)cc23)c(Cl)cc1Cl ?
Marked response: 5.91

----------
# target.of.assay: SIK3 (human) (UniProt Q9Y2K2)
# Sequence (Q9Y2K2 whole entry, looked up): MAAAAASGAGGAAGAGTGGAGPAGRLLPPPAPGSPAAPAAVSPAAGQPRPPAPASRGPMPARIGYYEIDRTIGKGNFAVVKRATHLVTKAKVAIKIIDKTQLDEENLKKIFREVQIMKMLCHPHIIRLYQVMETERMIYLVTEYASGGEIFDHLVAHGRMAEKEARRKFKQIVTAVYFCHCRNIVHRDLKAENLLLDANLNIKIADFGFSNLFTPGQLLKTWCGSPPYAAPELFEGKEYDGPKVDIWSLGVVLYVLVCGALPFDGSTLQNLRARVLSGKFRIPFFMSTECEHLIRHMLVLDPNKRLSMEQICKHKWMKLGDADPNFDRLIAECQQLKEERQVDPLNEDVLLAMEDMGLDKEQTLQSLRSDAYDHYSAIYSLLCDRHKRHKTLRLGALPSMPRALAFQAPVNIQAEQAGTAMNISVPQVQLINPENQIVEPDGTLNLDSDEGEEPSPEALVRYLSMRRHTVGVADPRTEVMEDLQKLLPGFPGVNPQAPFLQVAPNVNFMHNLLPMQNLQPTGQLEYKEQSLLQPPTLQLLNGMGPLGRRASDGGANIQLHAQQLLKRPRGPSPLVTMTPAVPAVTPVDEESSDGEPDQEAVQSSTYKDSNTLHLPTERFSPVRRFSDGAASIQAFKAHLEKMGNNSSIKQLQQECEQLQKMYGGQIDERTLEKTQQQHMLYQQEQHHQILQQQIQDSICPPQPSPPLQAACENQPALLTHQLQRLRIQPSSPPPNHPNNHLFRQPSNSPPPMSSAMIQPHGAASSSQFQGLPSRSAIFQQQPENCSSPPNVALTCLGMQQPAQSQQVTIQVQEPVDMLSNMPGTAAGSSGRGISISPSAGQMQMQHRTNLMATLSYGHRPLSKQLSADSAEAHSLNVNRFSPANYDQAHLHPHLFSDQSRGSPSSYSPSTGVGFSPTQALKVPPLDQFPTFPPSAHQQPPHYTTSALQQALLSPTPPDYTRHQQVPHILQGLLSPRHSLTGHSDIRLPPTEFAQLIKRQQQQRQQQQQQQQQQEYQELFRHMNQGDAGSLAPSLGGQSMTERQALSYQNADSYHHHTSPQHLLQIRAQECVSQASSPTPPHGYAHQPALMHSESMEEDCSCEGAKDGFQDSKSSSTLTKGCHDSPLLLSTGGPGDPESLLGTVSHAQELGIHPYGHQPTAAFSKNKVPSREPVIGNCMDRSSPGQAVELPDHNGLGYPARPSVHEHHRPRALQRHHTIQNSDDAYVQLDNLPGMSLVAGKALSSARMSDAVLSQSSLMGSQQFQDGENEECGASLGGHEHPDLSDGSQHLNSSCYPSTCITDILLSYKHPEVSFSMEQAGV
observable: IC50 (nM)
Give the value, in units of nM, as a plain number.

Exam item: Form field: reported IC50 of COc1cc(Nc2c(C#N)cnc3cc(OCCCN4CCN(C)CC4)c(OC)cc23)c(Cl)cc1Cl
Marked response: 346

----------
# target.of.assay: ACVR1B (human)
observable: IC50 (nM)
Give the value, in units of nM, as a plain number.

Exam item: Form field: reported IC50 of COc1cc(Nc2c(C#N)cnc3cc(OCCCN4CCN(C)CC4)c(OC)cc23)c(Cl)cc1Cl
Marked response: 91

----------
# target.of.assay: EPHB1 (human) (UniProt P54762)
# Sequence (P54762 whole entry, looked up): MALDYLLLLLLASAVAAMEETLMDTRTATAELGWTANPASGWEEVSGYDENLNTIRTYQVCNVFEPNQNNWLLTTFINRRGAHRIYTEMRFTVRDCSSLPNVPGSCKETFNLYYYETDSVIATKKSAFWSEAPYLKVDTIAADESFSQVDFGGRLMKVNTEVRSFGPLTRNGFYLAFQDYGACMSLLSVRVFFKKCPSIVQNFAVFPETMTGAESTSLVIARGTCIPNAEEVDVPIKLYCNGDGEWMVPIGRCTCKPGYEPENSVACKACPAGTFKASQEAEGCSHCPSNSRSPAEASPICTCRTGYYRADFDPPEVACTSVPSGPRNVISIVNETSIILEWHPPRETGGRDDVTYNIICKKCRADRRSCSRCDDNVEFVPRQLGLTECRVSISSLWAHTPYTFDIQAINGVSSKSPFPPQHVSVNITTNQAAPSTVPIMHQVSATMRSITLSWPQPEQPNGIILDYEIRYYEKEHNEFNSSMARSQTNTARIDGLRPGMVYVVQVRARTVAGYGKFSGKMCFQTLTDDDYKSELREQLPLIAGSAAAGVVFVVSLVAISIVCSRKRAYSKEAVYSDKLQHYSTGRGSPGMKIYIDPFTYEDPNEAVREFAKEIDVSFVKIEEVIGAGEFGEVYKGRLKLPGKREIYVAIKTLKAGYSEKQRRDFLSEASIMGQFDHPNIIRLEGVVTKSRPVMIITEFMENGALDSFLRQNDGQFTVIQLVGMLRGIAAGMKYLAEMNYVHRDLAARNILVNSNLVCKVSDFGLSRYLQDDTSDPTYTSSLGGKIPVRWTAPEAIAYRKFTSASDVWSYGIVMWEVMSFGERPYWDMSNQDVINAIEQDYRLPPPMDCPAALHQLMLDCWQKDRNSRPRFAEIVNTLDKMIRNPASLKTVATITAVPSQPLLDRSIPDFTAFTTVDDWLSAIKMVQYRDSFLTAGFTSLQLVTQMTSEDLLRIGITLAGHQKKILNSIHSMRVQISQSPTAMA
observable: pIC50
pIC50 here is simply -log10 of the concentration when that concentration is written in mol/L.

Exam item: Query for EPHB1 (human) (UniProt P54762): what pIC50 does the record show for COc1cc(Nc2c(C#N)cnc3cc(OCCCN4CCN(C)CC4)c(OC)cc23)c(Cl)cc1Cl ?
Marked response: 6.43

----------
# target.of.assay: CLK2 (human)
observable: IC50 (nM)
Give the value, in units of nM, as a plain number.

Exam item: Form field: reported IC50 of COc1cc(Nc2c(C#N)cnc3cc(OCCCN4CCN(C)CC4)c(OC)cc23)c(Cl)cc1Cl
Marked response: 1100

----------
# target.of.assay: SYK (human) (UniProt P43405)
observable: IC50 (nM)
Give the value, in units of nM, as a plain number.

Exam item: Query for SYK (human) (UniProt P43405): what IC50 does the record show for COc1cc(Nc2c(C#N)cnc3cc(OCCCN4CCN(C)CC4)c(OC)cc23)c(Cl)cc1Cl ?
Marked response: 745

----------
# target.of.assay: UniProt Q99759
observable: pIC50
pIC50 here is simply -log10 of the concentration when that concentration is written in mol/L.

Exam item: Query for UniProt Q99759: what pIC50 does the record show for COc1cc(Nc2c(C#N)cnc3cc(OCCCN4CCN(C)CC4)c(OC)cc23)c(Cl)cc1Cl ?
Marked response: 6.21

----------
# target.of.assay: ABL2 (human) (UniProt P42684)
observable: pIC50
pIC50 here is simply -log10 of the concentration when that concentration is written in mol/L.

Exam item: Form field: reported pIC50 of COc1cc(Nc2c(C#N)cnc3cc(OCCCN4CCN(C)CC4)c(OC)cc23)c(Cl)cc1Cl
Marked response: 7.15

----------
# target.of.assay: PTK2B (human) (UniProt Q14289)
# Sequence (Q14289 whole entry, looked up): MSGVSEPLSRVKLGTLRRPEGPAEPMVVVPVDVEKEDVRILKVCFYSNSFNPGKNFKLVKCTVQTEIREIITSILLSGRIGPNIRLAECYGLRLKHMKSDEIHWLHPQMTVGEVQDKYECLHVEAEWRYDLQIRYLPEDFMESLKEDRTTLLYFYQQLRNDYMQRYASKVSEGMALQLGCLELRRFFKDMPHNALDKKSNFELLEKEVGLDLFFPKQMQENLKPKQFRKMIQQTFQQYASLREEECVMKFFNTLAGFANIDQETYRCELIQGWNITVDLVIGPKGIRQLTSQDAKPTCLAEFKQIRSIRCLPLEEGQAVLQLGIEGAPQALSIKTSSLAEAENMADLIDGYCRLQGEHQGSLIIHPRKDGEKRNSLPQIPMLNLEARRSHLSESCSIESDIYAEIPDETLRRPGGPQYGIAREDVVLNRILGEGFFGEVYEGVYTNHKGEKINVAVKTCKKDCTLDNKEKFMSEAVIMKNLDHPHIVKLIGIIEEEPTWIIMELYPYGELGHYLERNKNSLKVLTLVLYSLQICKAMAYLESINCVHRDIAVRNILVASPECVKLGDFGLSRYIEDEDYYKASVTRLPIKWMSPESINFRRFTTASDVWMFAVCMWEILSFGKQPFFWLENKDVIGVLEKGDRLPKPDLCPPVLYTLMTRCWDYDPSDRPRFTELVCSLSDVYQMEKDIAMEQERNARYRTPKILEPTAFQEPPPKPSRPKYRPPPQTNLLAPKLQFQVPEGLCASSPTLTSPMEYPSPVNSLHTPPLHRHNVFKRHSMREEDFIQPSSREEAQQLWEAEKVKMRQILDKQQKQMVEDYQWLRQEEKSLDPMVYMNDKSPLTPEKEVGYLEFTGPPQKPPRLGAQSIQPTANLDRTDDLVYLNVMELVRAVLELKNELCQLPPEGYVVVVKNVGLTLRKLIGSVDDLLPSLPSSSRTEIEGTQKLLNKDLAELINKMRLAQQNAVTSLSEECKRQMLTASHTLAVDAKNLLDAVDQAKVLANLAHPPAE
observable: IC50 (nM)
Give the value, in units of nM, as a plain number.

Exam item: Form field: reported IC50 of COc1cc(Nc2c(C#N)cnc3cc(OCCCN4CCN(C)CC4)c(OC)cc23)c(Cl)cc1Cl
Marked response: 1220

----------
# target.of.assay: RPS6KA3 KD1 KD2 (human) (UniProt P51812)
# Sequence (P51812 whole entry, looked up): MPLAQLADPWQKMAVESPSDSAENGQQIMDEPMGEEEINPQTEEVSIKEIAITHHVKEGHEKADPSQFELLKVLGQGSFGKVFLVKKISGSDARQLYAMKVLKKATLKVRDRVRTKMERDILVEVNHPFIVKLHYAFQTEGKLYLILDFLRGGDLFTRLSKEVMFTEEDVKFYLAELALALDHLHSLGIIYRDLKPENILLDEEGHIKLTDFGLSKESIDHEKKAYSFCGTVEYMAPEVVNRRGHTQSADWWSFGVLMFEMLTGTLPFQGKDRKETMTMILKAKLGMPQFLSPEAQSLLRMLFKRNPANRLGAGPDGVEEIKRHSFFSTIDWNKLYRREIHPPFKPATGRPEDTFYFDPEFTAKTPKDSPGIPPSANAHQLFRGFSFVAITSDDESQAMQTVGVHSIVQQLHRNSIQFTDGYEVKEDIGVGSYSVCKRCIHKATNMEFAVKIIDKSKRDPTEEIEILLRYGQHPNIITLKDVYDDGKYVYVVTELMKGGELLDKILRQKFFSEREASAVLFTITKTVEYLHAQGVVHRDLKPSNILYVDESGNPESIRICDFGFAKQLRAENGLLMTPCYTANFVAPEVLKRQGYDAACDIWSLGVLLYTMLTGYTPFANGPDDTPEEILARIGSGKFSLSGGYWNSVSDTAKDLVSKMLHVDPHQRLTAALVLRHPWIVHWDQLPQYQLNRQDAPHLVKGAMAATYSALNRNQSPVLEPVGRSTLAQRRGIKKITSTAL
observable: pIC50
pIC50 here is simply -log10 of the concentration when that concentration is written in mol/L.

Exam item: Query for RPS6KA3 KD1 KD2 (human) (UniProt P51812): what pIC50 does the record show for COc1cc(Nc2c(C#N)cnc3cc(OCCCN4CCN(C)CC4)c(OC)cc23)c(Cl)cc1Cl ?
Marked response: 5.62

----------
# target.of.assay: TNK2 (human)
observable: pIC50
pIC50 here is simply -log10 of the concentration when that concentration is written in mol/L.

Exam item: Form field: reported pIC50 of COc1cc(Nc2c(C#N)cnc3cc(OCCCN4CCN(C)CC4)c(OC)cc23)c(Cl)cc1Cl
Marked response: 6.50
